IC50 by entry:
target-of-assay: serotonin S2 (5-HT2) receptors (Rattus norvegicus)
Construct: cortical tissue is dissected and weighed; from tissue; host or cells: cerebral cortex membranes of male Wistar (Mol:Wist) rats
run-description: inhibition of 3H-ketanserin binding to serotonin S2 (5-HT2) receptors in rat cortex in vitro
measurement-parameters: 3H-ketanserin 0.5 nM, rat cortex membranes, read-out: Binding IC50, 3H Ket.
The figure you give is taken to be in nM; do not add the unit.

# molecule, target-of-assay, IC50 (nM)
rows = [
    ("CC(C)N1CCN(CCN2CCC(c3cn(-c4ccc(F)cc4)c4cc(C#N)ccc34)CC2)C1=O", "serotonin S2 (5-HT2) receptors (Rattus norvegicus)", 8.6),
]

Entry Cc1ccc2c(C3CCN(CCN4CCN(C(C)C)C4=O)CC3)cn(-c3cccc(F)c3)c2c1 [Compound 15g] , IC50 reported as 11

Note to self: IC50 recorded for Cc1ccc2c(N3CCN(CCN4CCN(C(C)C)C4=O)CC3)cn(-c3ccc(F)cc3)c2c1 was 2.7

Field IC50 (entry CC(C)n1ccn(CCN2CCC(c3cn(-c4ccc(F)cc4)c4cc(Cl)ccc34)CC2)c1=O [Compound 17a] ) reads 4.6

The reported IC50 of the molecule CC(C)N1CCN(CCN2CCN(c3cn(-c4ccc(F)cc4)c4cc(Cl)ccc34)CC2)C1=O was 2.7

// Cc1ccc2c(C3=CCN(CCN4CCN(C(C)C)C4=O)CC3)cn(-c3ccc(F)cc3)c2c1 : IC50 value = 1.9

For record O=C1NCCN1CCN1CCC(c2cn(-c3ccc(F)cc3)c3cc4c(cc23)CCC4)CC1 the listed IC50 is 1.2

Value of measured IC50 for the entry CC(C)N1CCN(CCN2CCC(c3cn(-c4ccccc4F)c4cc(Cl)ccc34)CC2)C1=O [Compound 15j] : 3.7

###

target-of-assay: dopamine D-2 receptors (Rattus norvegicus, UniProt P61169)
Construct: striatal tissue is dissected and weighed; from tissue; host or cells: corpus striatum membranes of male Wistar rats
Sequence (P61169 whole entry): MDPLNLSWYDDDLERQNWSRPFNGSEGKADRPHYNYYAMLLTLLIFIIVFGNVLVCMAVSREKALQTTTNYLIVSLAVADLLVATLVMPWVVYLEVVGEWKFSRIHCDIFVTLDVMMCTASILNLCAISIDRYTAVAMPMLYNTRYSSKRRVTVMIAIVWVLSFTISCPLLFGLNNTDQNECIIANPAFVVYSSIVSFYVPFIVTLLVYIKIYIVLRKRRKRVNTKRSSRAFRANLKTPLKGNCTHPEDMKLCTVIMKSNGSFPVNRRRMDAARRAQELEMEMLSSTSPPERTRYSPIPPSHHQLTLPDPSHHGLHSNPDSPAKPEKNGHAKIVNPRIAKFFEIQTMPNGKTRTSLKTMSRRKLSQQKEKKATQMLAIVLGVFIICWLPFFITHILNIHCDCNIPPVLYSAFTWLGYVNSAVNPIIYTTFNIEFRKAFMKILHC
run-description: inhibition of 3H-spiperone binding to dopamine D-2 receptors in rat corpus striatum in vitro
measurement-parameters: 3H-spiperone 0.5 nM, rat corpus striatum membranes, in vitro; read-out: Binding IC50, 3H Spi.
endpoint: IC50 (µM)
The reply should contain only the number, in µM.

Record excerpt, results attached:
# molecule, IC50 (µM)
rows = [
    ("Cc1ccc2c(C3CCN(CCN4CCN(C(C)C)C4=O)CC3)cn(-c3ccc(F)cc3)c2c1 [Compound 5a]", 0.19),
    ("Cc1ccc2c(C3CCN(CCN4CCNC4=O)CC3)cn(-c3ccc(F)cc3)c2c1 [Compound 4g]", 0.27),
    ("N#Cc1ccc2c(C3CCN(CCN4CCNC4=O)CC3)cn(-c3ccc(F)cc3)c2c1 [Compound 5j]", 1.5),
]

Now turn to the next molecule.
Value of measured IC50 for the entry Cc1ccc2c(C3CCN(CCN4CCN(C(C)C)C4=O)CC3)cn(-c3ccoc3)c2c1 [Compound 15d] : 4.5

###

In this section, each of the compounds is paired with its reported pIC50.
target-of-assay: dopamine D-2 receptors (Rattus norvegicus, UniProt P61169)
Construct: striatal tissue is dissected and weighed; from tissue; host or cells: corpus striatum membranes of male Wistar rats
run-description: inhibition of 3H-spiperone binding to dopamine D-2 receptors in rat corpus striatum in vitro
measurement-parameters: 3H-spiperone 0.5 nM, rat corpus striatum membranes, in vitro; read-out: Binding IC50, 3H Spi.
Scale for pIC50: -log10 of concentration given in mol/L; no unit attached.

# compound, pIC50
measured = [
    ("Cc1ccc2c(C3CCN(CCNC(=O)NC(C)C)CC3)cn(-c3ccc(F)cc3)c2c1", 6.52),
    ("CC(C)N1CCN(CCN2CCC(c3cn(-c4ccc(F)cc4)c4cc(Cl)ccc34)CC2)C1=O", 6.89),
]

Quick note, pIC50 for OCCN1CCN(c2cn(-c3ccc(F)cc3)c3ccc(C(F)(F)F)cc23)CC1 [Lu 21-152, reference compound] landed at 8.59

###

Recorded ED50 for the following compounds
target-of-assay: 5-HT2 (Rattus norvegicus, UniProt P14842)
Construct: Four rats, male Wistar (Mol:Wist) SPF rats weighing 170-240 g; from tissue; host or cells: living male Wistar (Mol:Wist) SPF rats (in vivo, endogenous receptor)
Sequence (P14842 whole entry): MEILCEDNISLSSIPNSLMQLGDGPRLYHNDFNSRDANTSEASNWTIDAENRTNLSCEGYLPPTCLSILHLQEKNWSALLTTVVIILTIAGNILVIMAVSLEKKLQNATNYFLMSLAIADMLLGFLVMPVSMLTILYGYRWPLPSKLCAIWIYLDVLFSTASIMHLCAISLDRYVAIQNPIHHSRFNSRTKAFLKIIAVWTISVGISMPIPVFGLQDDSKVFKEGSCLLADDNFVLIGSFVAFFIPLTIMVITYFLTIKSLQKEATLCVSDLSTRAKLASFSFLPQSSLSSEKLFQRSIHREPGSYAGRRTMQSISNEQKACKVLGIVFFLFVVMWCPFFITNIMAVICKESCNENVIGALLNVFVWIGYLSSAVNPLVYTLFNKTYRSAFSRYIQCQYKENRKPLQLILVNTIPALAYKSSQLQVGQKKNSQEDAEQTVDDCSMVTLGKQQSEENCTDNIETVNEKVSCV
run-description: quipazine inhibition (quipazine-induced head twitches in rats)
Type: in vivo
measurement-parameters: po, 24 h, read-out: Quipazine inhibition ED50, 24h (po)
Just the number in µmol/kg, nothing appended.

The value of ED50 measured for the compound Cc1ccc2c(C3CCN(CCN4CCN(C(C)C)C4=O)CC3)cn(-c3ccc(F)cc3)c2c1 turned out to be 0.11

ED50 for Cc1ccc2c(C3CCN(CCN4CCNC4=O)CC3)cn(-c3ccc(F)cc3)c2c1 is 0.04

The reported ED50 of the compound CC(C)N1CCN(CCN2CCC(c3cn(-c4ccc(F)cc4)c4cc(Cl)ccc34)CC2)C1=O was 0.06

Recorded result, O=C1NCCN1CCN1CCC(c2cn(-c3ccc(F)cc3)c3cc(Cl)c(Cl)cc23)CC1 , ED50: 0.04

###

target-of-assay: DA D-2 (Rattus norvegicus, UniProt P61169)
Construct: Male Wistar rats (Mol:Wist) weighing about 200 g at the time of operation are used; from tissue; host or cells: living male Wistar (Mol:Wist) rats with unilateral 6-OHDA lesions (in vivo, endogenous receptor)
Sequence (P61169 whole entry): as the sequence (P61169 whole entry) above
run-description: antagonism of pergolide-induced circling behaviour in rats with unilateral 6-OHDA lesions
Type: in vivo
measurement-parameters: sc, read-out: Pergolide rot. inhibition ED50, 2h (sc), 6-OHDA lesions, s.c., 2 h before pergolide
endpoint: ED50

# example entries with known answers
# compound, ED50
data = [
    ("O=C1NCCN1CCN1CCC(c2cn(-c3ccc(F)cc3)c3cc(Cl)c(Cl)cc23)CC1 [Compound 5f]", "> 42 µmol/kg"),
    ("Cc1ccc2c(C3CCN(CCN4CCNC4=O)CC3)cn(-c3ccc(F)cc3)c2c1 [Compound 4g]", "> 24 µmol/kg"),
    ("Cc1ccc2c(C3CCN(CCN4CCN(C(C)C)C4=O)CC3)cn(-c3ccc(F)cc3)c2c1 [Compound 5a]", "> 18 µmol/kg"),
]

Form field ED50, entry O=C1NCCN1CCN1CCC(c2cn(-c3ccc(F)cc3)c3ccc(Cl)cc23)CC1 [sertindole (Lu 23-174), reference compound] : 7.2 µmol/kg

###

Below are pIC50 values recorded for serotonin S2 (5-HT2) receptors (Rattus norvegicus, UniProt P14842).
Keep it numeric: pIC50 is minus log10 of the concentration in mol/L.

Worked cases, pIC50 given:
# compound, pIC50
rows = [
    ("Cc1ccc2c(C3CCN(CCN4CCN(C(C)C)C4=O)CC3)cn(-c3ccsc3)c2c1 [Compound 15c]", 8.59),
    ("CCOC(=O)NCCN1CCC(c2cn(-c3ccc(F)cc3)c3cc(Cl)ccc23)CC1", 8.40),
    ("CNC(=O)N(C)CCN1CCC(c2cn(-c3ccc(F)cc3)c3cc(Cl)ccc23)CC1", 8.80),
]

Kindly consider the entry below.
So, O=C1NCCN1CCN1CCC(c2cn(-c3ccc(F)cc3)c3cc(Cl)c(Cl)cc23)CC1 ? Its pIC50 was 8.46

###

target-of-assay: α1 adrenoceptors
run-description: inhibition of 3H-prazosin binding to α1 adrenoceptors in rat brain in vitro
measurement-parameters: 3H-prazosin 0.25 nM, rat brain membranes, read-out: Binding IC50, 3H Praz.
Below, each entry is listed alongside its reported pIC50.
Interpret pIC50 as the negative base-10 log of the concentration measured in mol/L.

Worked cases, pIC50 given:
# compound, pIC50
measured = [
    ("O=C1NCCN1CCN1CCC(c2cn(-c3ccc(F)cc3)c3ccc(Cl)cc23)CC1 [sertindole (Lu 23-174), reference compound]", 8.47),
    ("Cc1ccc2c(C3CCN(CCN4CCN(C(C)C)C4=O)CC3)cn(-c3ccccc3F)c2c1 [Compound 15f]", 6.43),
    ("Cc1ccc2c(C3CCN(CCN4CCN(C(C)C)C4=O)CC3)cn(-c3ccsc3)c2c1 [Compound 15c]", 6.48),
    ("CC(C)N1CCN(CCN2CCC(c3cn(-c4ccc(F)cc4)c4cc(Cl)ccc34)CC2)C1=O", 7.15),
    ("Cc1nc2sccn2c(=O)c1CCN1CCC(=C(c2ccc(F)cc2)c2ccc(F)cc2)CC1", 7.33),
]

Note to self: pIC50 of Cc1ccc2c(N3CCN(CCN4CCN(C(C)C)C4=O)CC3)cn(-c3ccc(F)cc3)c2c1 with α1 adrenoceptors was 7.12

Known value: α1 adrenoceptors pIC50 of the compound CC(C)N1CCN(CCN2CC=C(c3cn(-c4ccc(F)cc4)c4cc(Cl)ccc34)CC2)C1=O equals 7.26

Lab note: compound Cc1c(C2CCN(CCN3CCNC3=O)CC2)c2ccccc2n1-c1ccc(F)cc1 [Compound 24c] tested on α1 adrenoceptors; recorded pIC50 was 7.21
